Quick reference for half-life among some molecules
experiment: PK analysis in male Sprague-Dawley rats; type: in vivo; settings: male, Sprague-Dawley, plasma, iv; rat, i.v. 2 mg/kg, hydrochloride salt forms, mean ± SD n = 3; read-out: t1/2, app (converted)
assay metric: half-life (h)

molecule | unit text | measured result
NC(=O)c1ccc(OCCNC[C@H](O)COc2ccc3c(c2)OC[C@@H](COCC2CC2)O3)cc1 [NDD-713] | h | 1.7
O=C1NCc2cc(OCCNC[C@H](O)COc3ccc4c(c3)OC[C@@H](COCC3CC3)O4)ccc21 [NDD-825] | h | 5.3

* * *

Experiment: PK analysis in male Sprague-Dawley rats
Type: in vivo
Conditions: male, Sprague-Dawley, plasma, iv; rat, i.v. 2 mg/kg, hydrochloride salt forms; read-out: Plasma CLtotal
Procedure: Blood samples were centrifuged, supernatant plasma was removed, and plasma concentrations of compounds were determined by LC-MS. […] Studies were carried out by CDCO.
assay metric: clearance (L/h/kg)

molecular string | unit text | measured result
O=C1NCc2cc(OCCNC[C@H](O)COc3ccc4c(c3)OC[C@@H](COCC3CC3)O4)ccc21 | L/h/kg | 3.24
NC(=O)c1ccc(OCCNC[C@H](O)COc2ccc3c(c2)OC[C@@H](COCC2CC2)O3)cc1 | L/h/kg | 3.72

* * *

biological target: 5-HT2B (Homo sapiens)
Sequence (P41595 whole entry): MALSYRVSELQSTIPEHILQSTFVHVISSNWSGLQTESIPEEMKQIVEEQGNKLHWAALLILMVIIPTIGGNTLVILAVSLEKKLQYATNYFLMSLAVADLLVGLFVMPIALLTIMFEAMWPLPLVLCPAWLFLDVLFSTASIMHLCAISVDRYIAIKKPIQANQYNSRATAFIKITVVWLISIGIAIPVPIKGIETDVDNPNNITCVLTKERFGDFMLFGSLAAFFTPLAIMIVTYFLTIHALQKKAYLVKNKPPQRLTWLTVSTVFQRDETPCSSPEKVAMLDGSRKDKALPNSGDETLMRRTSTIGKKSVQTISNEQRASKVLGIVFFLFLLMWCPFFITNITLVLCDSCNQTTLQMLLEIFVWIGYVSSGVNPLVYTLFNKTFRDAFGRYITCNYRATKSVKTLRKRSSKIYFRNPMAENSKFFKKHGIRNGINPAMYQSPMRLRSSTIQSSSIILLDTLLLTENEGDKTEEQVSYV
pKi: −log10 of the molar value.
assay metric: pKi

molecular string | assay metric | measured result
NC(=O)c1ccc(OCCNC[C@H](O)COc2ccc3c(c2)OC[C@@H](COCC2CC2)O3)cc1 | pKi | < 5.00

* * *

experiment: PK analysis in male Sprague-Dawley rats; type: in vivo; settings: male, Sprague-Dawley, plasma, po; rat, p.o. 10 mg/kg, hydrochloride salt forms
Attribute: AUC(0-t)
assay metric: AUC(0-t) (µM·h)

compound | assay metric | unit text | measured result
O=C1NCc2cc(OCCNC[C@H](O)COc3ccc4c(c3)OC[C@@H](COCC3CC3)O4)ccc21 [NDD-825] | AUC(0-t) | µM·h | 3
NC(=O)c1ccc(OCCNC[C@H](O)COc2ccc3c(c2)OC[C@@H](COCC2CC2)O3)cc1 [NDD-713] | AUC(0-t) | µM·h | 5.1

* * *

assay: PK analysis in male Sprague-Dawley rats; type: in vivo; settings: male, Sprague-Dawley, plasma, po; rat, p.o. 10 mg/kg, hydrochloride salt forms; read-out: t1/2, app (converted)
half-life overview

compound | half-life, h
O=C1NCc2cc(OCCNC[C@H](O)COc3ccc4c(c3)OC[C@@H](COCC3CC3)O4)ccc21 [NDD-825] | 4.6
NC(=O)c1ccc(OCCNC[C@H](O)COc2ccc3c(c2)OC[C@@H](COCC2CC2)O3)cc1 [NDD-713] | 1.5

* * *

test: Protein binding by ultracentrifugation, human liver microsomes; assay type: in vitro ADME; conditions: pH 7.4, 0.4 mg/ml protein, read-out: fu human liver microsomes
fraction unbound at 4.2 h, 1 µM values for the molecules below.
assay metric: fraction unbound at 4.2 h, 1 µM

molecular string | assay metric | measured result
O=C1NCc2cc(OCCNC[C@H](O)COc3ccc4c(c3)OC[C@@H](COCC3CC3)O4)ccc21 | fraction unbound at 4.2 h, 1 µM | 0.63
NC(=O)c1ccc(OCCNC[C@H](O)COc2ccc3c(c2)OC[C@@H](COCC2CC2)O3)cc1 | fraction unbound at 4.2 h, 1 µM | 0.67
